Target: CDK4/Cyclin D1 complex (UniProt P11802 1-303; P24385 1-295)
Sequence (P11802 other isoform, or with tags, fused parts or gaps, chain 1 of 2): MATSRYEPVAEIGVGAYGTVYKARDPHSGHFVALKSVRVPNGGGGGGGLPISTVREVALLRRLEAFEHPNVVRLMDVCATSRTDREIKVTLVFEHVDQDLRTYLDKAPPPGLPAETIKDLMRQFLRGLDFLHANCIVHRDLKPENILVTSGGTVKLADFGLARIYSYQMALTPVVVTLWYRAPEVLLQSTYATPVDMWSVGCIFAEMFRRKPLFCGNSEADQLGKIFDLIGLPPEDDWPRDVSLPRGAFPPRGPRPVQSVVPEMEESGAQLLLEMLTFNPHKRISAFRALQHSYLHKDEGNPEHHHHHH
Sequence (P24385 whole entry, chain 2 of 2): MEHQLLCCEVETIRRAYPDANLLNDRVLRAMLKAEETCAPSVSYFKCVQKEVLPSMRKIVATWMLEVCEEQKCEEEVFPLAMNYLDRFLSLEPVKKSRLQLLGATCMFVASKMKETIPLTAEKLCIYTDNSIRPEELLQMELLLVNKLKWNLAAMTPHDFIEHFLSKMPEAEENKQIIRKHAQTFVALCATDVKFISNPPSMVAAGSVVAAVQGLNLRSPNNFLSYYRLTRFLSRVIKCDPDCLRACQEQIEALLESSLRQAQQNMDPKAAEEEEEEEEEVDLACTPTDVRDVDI
Experiment: cell-based or functional assay
Ends that are not written are not given here.
# IC50, cyclin D1/CDK4 kinase, GST-pRb per entry
Kindly provide the numeric value in µM only, without the unit symbol.

Worked examples, 10 binders total:
>>> value_measured("HSKRRLIFSKRK-NH2 [HSKRRLIFSKRK-NH2]")
34
>>> value_measured("HSKRRLIFS-NH2 [HSKRRLIFS-NH2]")
32
>>> value_measured("FYHSKRRLIFS-NH2 [FYHSKRRLIFS-NH2]")
22
>>> value_measured("DFYHSKRRLIFA-NH2 [DFYHSKRRLIFA-NH2]")
40
>>> value_measured("YHSKRRLIFS-NH2 [YHSKRRLIFS-NH2]")
20
>>> value_measured("DAYHSKRRLIFS-NH2 [DAYHSKRRLIFS-NH2]")
37
>>> value_measured("DFYHSKRRLAFS-NH2 [DFYHSKRRLAFS-NH2]")
53
>>> value_measured("FYHSKRRLIFSK-NH2 [FYHSKRRLIFSK-NH2]")
41
>>> value_measured("DFYHSKRRLIFS-NH2 [p21 (149-160) DFYHSKRRLIFS-NH2]")
20
>>> value_measured("DFAHSKRRLIFS-NH2 [DFAHSKRRLIFS-NH2]")
121

Query :: Which IC50, cyclin D1/CDK4 kinase, GST-pRb value belongs to SKRRLIF-NH2 [SKRRLIF-NH2] ?
Result :: 54

Query :: Which IC50, cyclin D1/CDK4 kinase, GST-pRb value is on record for AFYHSKRRLIFS-NH2 [AFYHSKRRLIFS-NH2] ?
Result :: 22

Query :: Report IC50, cyclin D1/CDK4 kinase, GST-pRb for DFYHSKRRLIF-NH2 [p21 (149-159) DFYHSKRRLIF-NH2] please.
Result :: 13

Query :: # lookup: IC50, cyclin D1/CDK4 kinase, GST-pRb of YHSKRRLIFSKR-NH2 [YHSKRRLIFSKR-NH2]
Result :: 45

Query :: Tell me the measured IC50, cyclin D1/CDK4 kinase, GST-pRb of DFYASKRRLIFS-NH2 [DFYASKRRLIFS-NH2] , please.
Result :: 73

Query :: Sample DFYHSARRLIFS-NH2 [DFYHSARRLIFS-NH2] — what was its IC50, cyclin D1/CDK4 kinase, GST-pRb?
Result :: 200
